tested on: NCI-H23 lung; test: NCI-60 one-dose screen, 48 h (100 = growth as untreated, 0 = no growth, -100 = all killed); conditions: 10 µM unless noted
Compounds without any hit were thinned out: in the full panel of roughly 83,000, 20% have a hit. Activity calls are given as the source filed them. Rule for the calls: active = growth percent below 10; inactive = the rest.
Measure: growth

Compound: COc1cc(/C=C/c2cc(/C=C/c3ccc(O)c(OC)c3)n(-c3ccccc3)c(=O)n2)ccc1O
Measure: growth
Observed Result: 78.4% (inactive)
//
Compound: CN1CCN(CCOc2ccc(-c3cnc4c(-c5ccccc5F)cnn4c3)cc2)CC1
Measure: growth
Observed Result: 46.5% (inactive)
//
Compound: COc1ccc(/C=C(\C#N)c2cc3ccccc3n2S(C)(=O)=O)cc1
Measure: growth
Observed Result: 89.8% (inactive)
//
Compound: Cn1c(=O)c2c(ncn2CC(=O)Nc2ccc(S(N)(=O)=O)cc2)n(C)c1=O
Measure: growth
Observed Result: 104% (inactive)
//
Compound: C=C(C)[C@@H]1CC[C@]2(CN)CC[C@]3(C)[C@H](CC[C@@H]4[C@@]5(C)CCC(=O)NC(C)(C)[C@@H]5CC[C@]43C)[C@@H]12
Measure: growth
Observed Result: 85.3% (inactive)
//
Compound: C=COCCCCCCCCCCCCCCCCCC
Measure: growth
Observed Result: 101% (inactive)
//
Compound: Cc1ccc2c(c1)c(-c1nc(-c3c[nH]c4ncccc34)cs1)cn2C
Measure: growth
Observed Result: 71.9% (inactive)
//
Compound: CC/C=C\C[C@H]1CC=C2C(=O)C=C[C@@H]2CC=CCCCC(=O)O[C@@H](CCCCC)CC=C2C(=O)C=C[C@@H]2CC=CCCCC(=O)O[C@@H](CCCCC)CC=C2C(=O)C=C[C@@H]2CC=CCCCC(=O)O[C@@H](CCCCC)CC=C2C(=O)C=C[C@@H]2CC=CCCCC(=O)O1
Measure: growth
Observed Result: 4.69% [7.9 µM] (active)
//
Compound: COc1cccc2c1C(=O)c1c(O)c3c(c(O)c1C2=O)C[C@@](O)(C(=O)CO)C[C@@H]3OC1C[C@H](N)[C@H](O)[C@H](C)O1 (some centres undefined)
Measure: growth
Observed Result: -33.5% (active)
//
Compound: OCC(CO)(CCl)CCl
Measure: growth
Observed Result: 93.2% (inactive)
//
Compound: CCN1CCN(C(=O)[C@]23CCC(C)(C)C[C@H]2C2=CC[C@@H]4[C@@]5(C)CC/C(=N/O)C(C)(C)[C@@H]5CC[C@@]4(C)[C@]2(C)CC3)CC1
Measure: growth
Observed Result: 69.7% (inactive)
//
Compound: Cc1cc(N(CCCNc2ccnc3cc(Cl)ccc23)Cc2ccco2)nc(Cl)n1
Measure: growth
Observed Result: 31.5% (inactive)
//
Compound: CC(=O)O[C@H]1CC[C@@]2(C)C(=CC[C@@H]3[C@@H]2CC[C@]2(C)C(=O)N(O)C(=O)C[C@@H]32)C1
Measure: growth
Observed Result: 68% (inactive)
//
Compound: C/C(=N\Nc1ccc2ccccc2n1)c1ccccn1
Measure: growth
Observed Result: 23.3% (inactive)
//
Compound: O=C1CCCC=CC[C@H]2C=C(Cl)C(=O)C2=CC[C@H](CCCCC(F)(F)F)OC(=O)CCCC=CC[C@H]2C=C(Cl)C(=O)C2=CC[C@H](CCCCC(F)(F)F)OC(=O)CCCC=CC[C@H]2C=C(Cl)C(=O)C2=CC[C@H](CCCCC(F)(F)F)O1
Measure: growth
Observed Result: 65.2% [6.25 µM] (inactive)
//
Compound: C=C(C)[C@@H]1CC[C@]2(C(=O)N3CCN(C)CC3)CC[C@]3(C)[C@H](CC[C@@H]4[C@@]5(C)C/C(=C/c6ccc(C(F)(F)F)cc6)C(=O)C(C)(C)[C@@H]5CC[C@]43C)[C@@H]12
Measure: growth
Observed Result: 99.2% (inactive)
//
Compound: C/C(=N/NC(N)=S)C(=O)O
Measure: growth
Observed Result: 101% (inactive)
//
Compound: CCCCC/C(=C\c1ccccc1)C1OC(C)C(C)O1 (centres undefined)
Measure: growth
Observed Result: 90.2% (inactive)
//
Compound: Nc1c(C(=O)Nc2cccc(Cl)c2)sc2ncc(Cl)cc12
Measure: growth
Observed Result: 87% (inactive)
//
Compound: Oc1ccc(CCC2CCCC(CCc3ccc(OCCF)cc3)N2)cc1 (centres undefined)
Measure: growth
Observed Result: 87.3% (inactive)
//
Compound: CC1(C)C(=O)CC[C@]2(C)[C@H]3C(=O)C=C4[C@@H]5C[C@@](C)(C(=O)NCCNCCN)CC[C@]5(C)CC[C@@]4(C)[C@]3(C)CC[C@@H]12
Measure: growth
Observed Result: 98.4% (inactive)
//
Compound: Cn1cc(-c2csc(-c3c[nH]c4ccc(F)cc34)n2)c2cccnc21
Measure: growth
Observed Result: 50.4% (inactive)
//
Compound: O=C1C(=O)c2ccccc2C(O)=C1CCCc1ccc(C2CCCCC2)cc1
Measure: growth
Observed Result: 36.9% (inactive)
//
Compound: Cc1ccc(-c2nc([P+](c3ccccc3)(c3ccccc3)c3ccccc3)c(N3CCOCC3)o2)cc1
Measure: growth
Observed Result: -9.72% (active)
//
Compound: Cc1cc(C)n(Cc2cc(C(C)(C)C)cc(C(C)(C)C)c2)c(=O)c1C#N
Measure: growth
Observed Result: 101% (inactive)
//
Compound: CCN(CC)CCCCCNc1cc(OC(=O)c2ccccc2)cc2cccnc12
Measure: growth
Observed Result: 92% (inactive)
//
Compound: CC1(C)CC[C@]2(C(=O)Nc3ccccn3)CC[C@]3(C)C(=CC[C@@H]4[C@@]5(C)C/C(=C/c6ccncc6)C(=O)C(C)(C)[C@@H]5CC[C@]43C)[C@@H]2C1
Measure: growth
Observed Result: 34.4% (inactive)
//
Compound: Cc1cc(N=O)cc(C(C)(C)C)c1O
Measure: growth
Observed Result: 97% (inactive)
//
Compound: Cc1c(C)c2c(c(C)c1NC(=O)CCCCCCC(=O)O)CCC(C)(CCCC(C)CCCC(C)CCCC(C)C)O2 (centres undefined)
Measure: growth
Observed Result: 85.7% (inactive)

* * *

test system: SNB-19 CNS; test: NCI-60 one-dose screen, 48 h (100 = growth as untreated, 0 = no growth, -100 = all killed); details: 10 µM unless noted
This is part of a sample that, as a whole, favours compounds with a hit. Of some 83,000 tested, about 20% had one in any assay.
Measure: growth (%)

Compound: C/C(Cc1ccc(Cl)cc1)=C(/c1ccc(Cl)cc1)c1ccc(OCCN2CCCC2)cc1
Target Entity: SNB-19 CNS
Observed Result: 89.8

Compound: Cc1nn2c(-c3nc4cc(Cl)c(Cl)cc4[nH]3)c(-c3ccc(F)cc3)nc2s1
Target Entity: SNB-19 CNS
Observed Result: 25.7

Compound: CCN(CC)CCCCCNc1cc(OC(=O)c2ccccc2)cc2cccnc12
Target Entity: SNB-19 CNS
Observed Result: 101

Compound: COc1ccc2c(c1)C(Br)=C(CCO)C2c1ccccc1 (centres undefined)
Target Entity: SNB-19 CNS
Observed Result: 57.7

Compound: CC1=NN(c2ccc(S(=O)(=O)O)cc2Cl)C(=O)C1
Target Entity: SNB-19 CNS
Observed Result: 96.2

Compound: CC(C)/C=C/CC[C@](C)(O)[C@H]1CC[C@]2(C)[C@@H]1CC[C@@H]1[C@@]3(C)C/C(=C/c4cccc(C(F)(F)F)c4)C(=O)C(C)(C)[C@@H]3CC[C@]12C
Target Entity: SNB-19 CNS
Observed Result: 92.2

Compound: COc1cccc(-c2nn(-c3ccccc3)cc2-c2ccnc(NCCCNS(=O)(=O)c3ccc(Cl)cc3)c2)c1
Target Entity: SNB-19 CNS
Observed Result: 52.1

Compound: COc1cc2c(cc1-c1c(C)noc1C)ncc1nc(C3CCC(F)(F)CC3)n([C@@H](C)COC(F)F)c12
Target Entity: SNB-19 CNS
Observed Result: 53.4

Compound: COc1cc(-c2c(C#N)c(-c3cccs3)nc3c2c(-c2ccccc2)nn3-c2ccccc2)ccc1O
Target Entity: SNB-19 CNS
Observed Result: 98.9

Compound: O=c1[nH]c2c3ccncc3cc(-c3cccc(Cl)c3)c2c2cnccc12
Target Entity: SNB-19 CNS
Observed Result: 75.7

Compound: CC(=O)c1c(C)[nH]c(-c2nc3ccc(N4CCN(C)CC4)cc3[nH]2)c1-c1ccc(OCC2CCOCC2)cc1
Target Entity: SNB-19 CNS
Observed Result: 42.7

Compound: COc1cccc(-c2nn(-c3ccccc3)cc2-c2ccnc(NCCNS(=O)(=O)c3cccc(F)c3)c2)c1
Target Entity: SNB-19 CNS
Observed Result: 37.2

Compound: N#CC1=C(N)Oc2ccc3ccccc3c2C1c1ccccc1Cl (centres undefined)
Target Entity: SNB-19 CNS
Observed Result: 33.9

Compound: Fc1ccc(Nc2ccc3c(OCCCN4CCOCC4)cccc3n2)cc1F
Target Entity: SNB-19 CNS
Observed Result: 90.5

Sourced from PubChem BioAssay (NCI)
